B1: PiggyBac transposable element-derived protein 1 (Homo sapiens), Q96JS3 (parent)
chain: MYEALPGPAPENEDGLVKVKEEDPTWEQVCNSQEGSSHTQEICRLRFRHFCYQEAHGPQEALAQLRELCHQWLRPEMHTKEQIMELLVLEQFLTILPKELQPCVKTYPLESGEEAVTVLENLETGSGDTGQQASVYIQGQDMHPMVAEYQGVSLECQSLQLLPGITTLKCEPPQRPQGNPQEVSGPVPHGSAHLQEKNPRDKAVVPVFNPVRSQTLVKTEEETAQAVAAEKWSHLSLTRRNLCGNSAQETVMSLSPMTEEIVTKDRLFKAKQETSEEMEQSGEASGKPNRECAPQIPCSTPIATERTVAHLNTLKDRHPGDLWARMHISSLEYAAGDITRKGRKKDKARVSELLQGLSFSGDSDVEKDNEPEIQPAQKKLKVSCFPEKSWTKRDIKPNFPSWSALDSGLLNLKSEKLNPVELFELFFDDETFNLIVNETNNYASQKNVSLEVTVQEMRCVFGVLLLSGFMRHPRREMYWEVSDTDQNLVRDAIRRDRFELIFSNLHFADNGHLDQKDKFTKLRPLIKQMNKNFLLYAPLEEYYCFDKSMCECFDSDQFLNGKPIRIGYKIWCGTTTQGYLVWFEPYQEESTMKVDEDPDLGLGGNLVMNFADVLLERGQYPYHLCFDSFFTSVKLLSALKKKGVRATGTIRENRTEKCPLMNVEHMKKMKRGYFDFRIEENNEIILCRWYGDGIISLCSNAVGIEPVNEVSCCDADNEEIPQISQPSIVKVYDECKEGVAKMDQIISKYRVRIRSKKWYSILVSYMIDVAMNNAWQLHRACNPGASLDPLDFRRFVAHFYLEHNAHLSD

# Variants of: B1
# condition summary: with traf2_human TRAF2, Q12933
# Sequence (Q12933 whole entry): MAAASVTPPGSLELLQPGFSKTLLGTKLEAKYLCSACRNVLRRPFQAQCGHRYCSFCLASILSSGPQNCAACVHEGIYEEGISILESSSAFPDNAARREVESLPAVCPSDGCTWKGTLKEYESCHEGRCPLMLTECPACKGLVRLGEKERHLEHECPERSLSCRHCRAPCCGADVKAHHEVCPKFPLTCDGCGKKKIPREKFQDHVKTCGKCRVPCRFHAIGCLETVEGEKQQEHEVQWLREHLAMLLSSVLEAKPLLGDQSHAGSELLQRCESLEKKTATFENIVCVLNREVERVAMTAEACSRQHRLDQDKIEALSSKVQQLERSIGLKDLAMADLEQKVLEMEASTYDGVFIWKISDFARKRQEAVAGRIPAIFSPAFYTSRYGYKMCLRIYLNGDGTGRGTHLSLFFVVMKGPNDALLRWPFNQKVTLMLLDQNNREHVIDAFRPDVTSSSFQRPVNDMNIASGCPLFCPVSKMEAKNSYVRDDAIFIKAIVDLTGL
property: effect of a mutation on the interaction

N398S = with no effect
I678V = with no effect
P256L = with no effect
